# TARGET_ENTITY: Progesterone receptor (Homo sapiens)
# PROTOCOL_DESCRIPTION: Agonistic activity against human progesterone receptor in T47D breast cancer cells
# Assay type: functional, cell-based
# pEC50 per record follows
# pEC50 = -log10(concentration in molar units)

Worked examples, 2 compounds total:
CC1=CC(C)(C)Nc2ccc3c(c21)/C(=C/c1ccccn1)Oc1ccc(F)cc1-3: 7.36
CC1=CC(C)(C)Nc2ccc3c(c21)/C(=C/c1ccncc1C)Oc1ccc(F)cc1-3: 8.34

Test item `CC1=CC(C)(C)Nc2ccc3c(c21)/C(=C/c1ccc(F)cc1)Oc1c(F)cccc1-3` ; Progesterone receptor (Homo sapiens); reported pEC50 was 8.10

Test item `CC1=CC(C)(C)Nc2ccc3c(c21)/C(=C/c1ccccc1C#N)Oc1ccc(F)cc1-3` ; Progesterone receptor (Homo sapiens); reported pEC50 was 7.01

Test item `CC1=CC(C)(C)Nc2ccc3c(c21)/C(=C/c1ccccc1C(C)C)Oc1ccc(F)cc1-3` ; Progesterone receptor (Homo sapiens); reported pEC50 was 7.27

Test item `CC1=CC(C)(C)Nc2ccc3c(c21)/C(=C/c1ccsc1)Oc1ccc(F)cc1-3` ; Progesterone receptor (Homo sapiens); reported pEC50 was 8.26

Test item `CC1=CC(C)(C)Nc2ccc3c(c21)/C(=C/c1ccccc1)Oc1c(F)cccc1-3` ; Progesterone receptor (Homo sapiens); reported pEC50 was 7.96

Test item `CC1=CC(C)(C)Nc2ccc3c(c21)/C(=C/c1ccccc1Br)Oc1ccc(F)cc1-3` ; Progesterone receptor (Homo sapiens); reported pEC50 was 7.30

Test item `CSc1ccccc1/C=C1\Oc2ccc(F)cc2-c2ccc3c(c21)C(C)=CC(C)(C)N3` ; Progesterone receptor (Homo sapiens); reported pEC50 was 7.39

Test item `CC1=CC(C)(C)Nc2ccc3c(c21)/C(=C/c1ccccc1C=O)Oc1ccc(F)cc1-3` ; Progesterone receptor (Homo sapiens); reported pEC50 was 7.32

* * *

# Species: Homo sapiens
# PROTOCOL_DESCRIPTION: Relative potency for human glucocorticoid and progesterone receptors
PARAMETER: Ratio
Number only, no unit.

Worked examples, 10 compounds total:
CC1=CC(C)(C)Nc2ccc3c(c21)/C(=C/c1ccsc1)Oc1ccc(F)cc1-3: 141
CC1=CC(C)(C)Nc2ccc3c(c21)/C(=C/c1ccccc1N(C)C)Oc1ccc(F)cc1-3: 119
COc1ccccc1/C=C1\Oc2ccc(F)cc2-c2ccc3c(c21)C(C)=CC(C)(C)N3: 97
CCc1ccccc1/C=C1\Oc2ccc(F)cc2-c2ccc3c(c21)C(C)=CC(C)(C)N3: 39
CC1=CC(C)(C)Nc2ccc3c(c21)/C(=C/c1ccncc1C)Oc1ccc(F)cc1-3: 54
CC1=CC(C)(C)Nc2ccc3c(c21)/C(=C/c1ccco1)Oc1ccc(F)cc1-3: 64
CC1=CC(C)(C)Nc2ccc3c(c21)/C(=C/c1ccccc1C)Oc1c(F)cccc1-3: 212
CC1=CC(C)(C)Nc2ccc3c(c21)/C(=C/c1ccccc1)Oc1ccc(F)cc1-3: 387
CC1=CC(C)(C)Nc2ccc3c(c21)/C(=C/c1ccccc1)Oc1c(F)cccc1-3: 119
CC1=CC(C)(C)Nc2ccc3c(c21)/C(=C/c1ccccc1C)Oc1ccc(F)cc1-3: 181

API: the following record is the query input.
// recorded Ratio for `CSc1ccccc1/C=C1\Oc2ccc(F)cc2-c2ccc3c(c21)C(C)=CC(C)(C)N3` : 139

* * *

# Organism: Homo sapiens
# PROTOCOL_DESCRIPTION: Relative potency for human androgen and progesterone receptors
PARAMETER: Ratio
Number only, no unit.

Worked examples, 2 molecules total:
CC1=CC(C)(C)Nc2ccc3c(c21)/C(=C/c1ccccc1)Oc1c(F)cccc1-3: 429
CC1=CC(C)(C)Nc2ccc3c(c21)/C(=C/c1ccccc1C)Oc1ccc(F)cc1-3: 228

// recorded Ratio for `CC1=CC(C)(C)Nc2ccc3c(c21)/C(=C/c1ccccc1)Oc1ccc(F)cc1-3` : 121

// recorded Ratio for `CC1=CC(C)(C)Nc2ccc3c(c21)/C(=C/c1ccccc1N(C)C)Oc1ccc(F)cc1-3` : 556

// recorded Ratio for `CC1=CC(C)(C)Nc2ccc3c(c21)/C(=C/c1ccco1)Oc1ccc(F)cc1-3` : 152

// recorded Ratio for `CC1=CC(C)(C)Nc2ccc3c(c21)/C(=C/c1ccsc1)Oc1ccc(F)cc1-3` : 303

* * *

# TARGET_ENTITY: Estrogen receptor (Homo sapiens, UniProt Q92731+P03372)
# PROTOCOL_DESCRIPTION: Antagonistic efficacy against human estrogen receptor
# Format: functional
# Efficacy per record follows
Enter the number, and then the unit.

Worked examples, 4 molecules total:
CC1=CC(C)(C)Nc2ccc3c(c21)/C(=C/c1ccsc1)Oc1ccc(F)cc1-3: 36%
CC1=CC(C)(C)Nc2ccc3c(c21)/C(=C/c1ccco1)Oc1ccc(F)cc1-3: 51%
COc1ccccc1/C=C1\Oc2ccc(F)cc2-c2ccc3c(c21)C(C)=CC(C)(C)N3: 34%
CC1=CC(C)(C)Nc2ccc3c(c21)/C(=C/c1ccncc1C)Oc1ccc(F)cc1-3: 44%

API: the following record is the query input.
// recorded Efficacy for `CC1=CC(C)(C)Nc2ccc3c(c21)/C(=C/c1ccccc1C)Oc1c(F)cccc1-3` : 41%

* * *

# TARGET_ENTITY: Progesterone receptor (Homo sapiens, UniProt P06401)
# PROTOCOL_DESCRIPTION: Agonistic activity against human progesterone receptor in CV-1 cells
# Type: functional, cell-based
PARAMETER: pEC50
# pEC50 = -log10(concentration in molar units)

Worked examples, 3 compounds total:
CC1=CC(C)(C)Nc2ccc3c(c21)/C(=C/c1ccccc1C(C)C)Oc1ccc(F)cc1-3: 8.40
CC1=CC(C)(C)Nc2ccc3c(c21)/C(=C/c1ccc(F)cc1)Oc1c(F)cccc1-3: 8.40
CSc1ccccc1/C=C1\Oc2ccc(F)cc2-c2ccc3c(c21)C(C)=CC(C)(C)N3: 8.21

// recorded pEC50 for `CC1=CC(C)(C)Nc2ccc3c(c21)/C(=C/c1ccccc1C=O)Oc1ccc(F)cc1-3` : 7.96

// recorded pEC50 for `CCc1ccccc1/C=C1\Oc2ccc(F)cc2-c2ccc3c(c21)C(C)=CC(C)(C)N3` : 8.70

// recorded pEC50 for `CC1=CC(C)(C)Nc2ccc3c(c21)/C(=C/c1ncccc1C)Oc1ccc(F)cc1-3` : 8.35

// recorded pEC50 for `CCCc1ccccc1/C=C1\Oc2ccc(F)cc2-c2ccc3c(c21)C(C)=CC(C)(C)N3` : 8.35

// recorded pEC50 for `CC1=CC(C)(C)Nc2ccc3c(c21)/C(=C/c1ccccn1)Oc1ccc(F)cc1-3` : 7.82

* * *

# TARGET_ENTITY: Progesterone receptor (Homo sapiens)
# Sequence (P06401 whole entry): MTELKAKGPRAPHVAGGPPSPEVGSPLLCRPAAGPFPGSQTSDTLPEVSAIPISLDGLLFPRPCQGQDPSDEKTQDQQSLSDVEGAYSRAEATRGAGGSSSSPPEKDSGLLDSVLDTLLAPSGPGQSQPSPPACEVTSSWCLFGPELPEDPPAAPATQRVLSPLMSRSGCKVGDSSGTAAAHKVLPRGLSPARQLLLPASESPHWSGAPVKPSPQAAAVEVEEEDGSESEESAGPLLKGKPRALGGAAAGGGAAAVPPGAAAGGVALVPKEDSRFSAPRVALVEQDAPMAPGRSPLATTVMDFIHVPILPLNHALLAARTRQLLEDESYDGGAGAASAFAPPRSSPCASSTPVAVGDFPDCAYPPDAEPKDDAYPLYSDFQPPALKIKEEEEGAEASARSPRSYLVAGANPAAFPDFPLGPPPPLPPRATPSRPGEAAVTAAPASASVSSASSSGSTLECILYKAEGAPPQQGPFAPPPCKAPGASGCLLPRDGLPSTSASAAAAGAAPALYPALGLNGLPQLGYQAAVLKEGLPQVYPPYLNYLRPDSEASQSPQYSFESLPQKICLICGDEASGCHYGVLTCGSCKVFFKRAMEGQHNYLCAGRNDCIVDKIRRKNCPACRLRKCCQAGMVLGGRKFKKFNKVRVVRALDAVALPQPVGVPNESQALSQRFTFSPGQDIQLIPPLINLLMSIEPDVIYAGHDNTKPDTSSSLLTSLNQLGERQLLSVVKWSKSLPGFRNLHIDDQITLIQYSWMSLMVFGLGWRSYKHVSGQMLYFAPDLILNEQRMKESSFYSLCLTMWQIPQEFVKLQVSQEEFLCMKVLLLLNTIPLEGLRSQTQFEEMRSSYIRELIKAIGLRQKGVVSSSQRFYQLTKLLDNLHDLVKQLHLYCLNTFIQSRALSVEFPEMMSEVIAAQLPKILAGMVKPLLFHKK
# PROTOCOL_DESCRIPTION: Binding affinity towards human progesterone receptor A isoform using progesterone as radioligand
Label y when Ki is strictly below 4 nM; at or above that, label n.

CC1=CC(C)(C)Nc2ccc3c(c21)/C(=C/c1ccccc1C)Oc1ccc(F)cc1-3: y
COc1ccccc1/C=C1\Oc2ccc(F)cc2-c2ccc3c(c21)C(C)=CC(C)(C)N3: y

[in] API: query returns whether the molecule falls strictly under 4 nM in Ki. Query: `CCc1ccccc1/C=C1\Oc2ccc(F)cc2-c2ccc3c(c21)C(C)=CC(C)(C)N3`
[out] y

[in] API: query returns whether the molecule falls strictly under 4 nM in Ki. Query: `CSc1ccccc1/C=C1\Oc2ccc(F)cc2-c2ccc3c(c21)C(C)=CC(C)(C)N3`
[out] y

[in] API: query returns whether the molecule falls strictly under 4 nM in Ki. Query: `CC1=CC(C)(C)Nc2ccc3c(c21)/C(=C/c1ccccc1C)Oc1c(F)cccc1-3`
[out] y

[in] API: query returns whether the molecule falls strictly under 4 nM in Ki. Query: `CC1=CC(C)(C)Nc2ccc3c(c21)/C(=C/c1ccccc1Br)Oc1ccc(F)cc1-3`
[out] n
